Parameter IC50: see the listing below.
- Tested on: guinea pig basophils
- method notes: Inhibition of histamine release from guinea pig basophils, Procedure C
- Type: cell-based
- conditions used: Cavia porcellus, 1 h; from guinea pig basophils (ovalbumin-sensitized); 60 min at 37° C.; > = no response detected at highest dose indicated; read-out: In Vitro Inhibition of Histamine Release IC50 (μM) Procedure C
Structures can show the parent of a compound that is named as a salt.
property measured: IC50 (µM)

# compound, reading unit, observed
data = [
    ("CCCCc1ccc(NC(=O)SCCCN2CCN(CCCc3ccc(Cl)cc3)CC2)cc1 [Example 33, dihydrochloride]", "µM", 14),
    ("SCCCN1CCN(CCc2ccc(Cl)cc2)CC1 [Example 25, dihydrochloride]", "µM", 5),
    ("O=C(NC1CCCCC1)SCCCN1CCN(Cc2ccc(Cl)cc2)CC1 [Example 6, dihydrochloride]", "µM", 20),
    ("O=C(Nc1ccccc1)SCCCN1CCN(Cc2ccc(Cl)cc2)CC1 [Example 7, dihydrochloride]", "µM", 13),
    ("COc1ccc(NC(=O)SCCCN2CCN(CCc3ccc(Cl)cc3)CC2)cc1 [Example 28, dihydrochloride]", "µM", 40),
]

###

- tested target: histamine (H1) receptor (Cavia porcellus, UniProt P31389)
- Construct: contraction of isolated guinea pig ileum; from tissue; host or cells: isolated guinea pig ileum
- Sequence (P31389 whole entry): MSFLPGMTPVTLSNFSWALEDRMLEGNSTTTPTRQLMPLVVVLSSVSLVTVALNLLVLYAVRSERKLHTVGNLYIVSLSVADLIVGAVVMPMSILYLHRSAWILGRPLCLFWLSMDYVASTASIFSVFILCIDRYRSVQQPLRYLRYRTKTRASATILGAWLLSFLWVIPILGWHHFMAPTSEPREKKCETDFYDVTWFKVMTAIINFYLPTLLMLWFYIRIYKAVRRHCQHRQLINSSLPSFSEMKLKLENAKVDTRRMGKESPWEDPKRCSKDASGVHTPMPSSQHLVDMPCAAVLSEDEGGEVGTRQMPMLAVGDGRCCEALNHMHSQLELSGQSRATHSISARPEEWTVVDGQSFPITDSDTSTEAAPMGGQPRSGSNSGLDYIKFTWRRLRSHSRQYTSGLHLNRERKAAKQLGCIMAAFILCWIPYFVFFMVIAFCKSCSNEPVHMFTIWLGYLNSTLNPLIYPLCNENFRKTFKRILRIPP
- method notes: Antagonism of histamine-induced contraction of isolated guinea pig ileum
- Format: tissue-based
- conditions used: histamine final concentration 0.2 μg/ml, 50% reduction of contractile response, read-out: Inhibition IC50 (μM) of histamine-induced contraction
- Source text: Certain compounds of formula I inhibit in vitro the histamine-induced contraction of isolated guinea pig ileum and are useful in warm-blooded animals for antagonizing the action of histamine at the histamine (H1) receptor. […] The antagonism of the effects of histamine on the contraction of isolated guinea pig ileum by the compounds of formula I can be determined by the procedure of G. Possanza, A. Bauen, and P. Stewart, Int. […]
Counter-ions that a name gives are not always drawn.

# compound, tested target, reading unit, IC50
rows = [
    ("O=C(Nc1ccc(F)cc1)SCCCN1CCN(Cc2ccc(Cl)cc2)CC1 [Example 9, dihydrochloride]", "histamine (H1) receptor (Cavia porcellus, UniProt P31389)", "µM", 0.12),
    ("O=C(NC1CCCCC1)SCCCN1CCN(Cc2ccc(Cl)cc2)CC1 [Example 6, dihydrochloride]", "histamine (H1) receptor (Cavia porcellus, UniProt P31389)", "µM", 0.06),
    ("O=C(Nc1ccccc1)SCCCN1CCN(CCc2ccc(Cl)cc2)CC1 [Example 26, dihydrochloride monohydrate]", "histamine (H1) receptor (Cavia porcellus, UniProt P31389)", "µM", 0.06),
    ("CNC(=O)SCCCN1CCN(Cc2ccc(Cl)cc2)CC1 [Example 4, dihydrochloride]", "histamine (H1) receptor (Cavia porcellus, UniProt P31389)", "µM", 0.19),
    ("COc1ccc(NC(=O)SCCCN2CCN(Cc3ccc(Cl)cc3)CC2)cc1 [Example 14, dihydrochloride monohydrate]", "histamine (H1) receptor (Cavia porcellus, UniProt P31389)", "µM", 0.12),
    ("COc1cc(NC(=O)SCCCN2CCN(CCc3ccc(Cl)cc3)CC2)cc(OC)c1OC [Example 29, dihydrochloride]", "histamine (H1) receptor (Cavia porcellus, UniProt P31389)", "µM", 0.18),
]
